# testDetails: Single-dose toxicokinetic and tolerability study of prodrugs in dogs
# Format: in vivo, dog
# assayContext: female, dog, plasma, po, 250 mg/kg, dog 4201F, day 1, Icb 250 mg/kg (IVc equiv. 203) QD dry-filled capsules; emesis
quantityKind: Cmax

COc1cnc(-n2cnc(C)n2)c2[nH]cc(C(=O)C(=O)N3CCN(C(=O)c4ccccc4)CC3)c12 [IVc]    88.9 µM

###

# testDetails: 2-week oral dose rat toxicology / TK study F
# Assay type: in vivo
# assayContext: female, Sprague-Dawley, rat, plasma, oral; females, dosages 200 mg/kg/day; read-out: AUC0-24 h on Day 14
quantityKind: AUC(0-t)

COc1cnc(-n2cnc(C)n2)c2[nH]cc(C(=O)C(=O)N3CCC(=C(C#N)c4ccccn4)CC3)c12    ≤ 644 µg·h/mL
